biological target: HEK293 membranes over-expressing WFS-1 (Homo sapiens (Human), UniProt O76024)
Sequence (O76024 whole entry): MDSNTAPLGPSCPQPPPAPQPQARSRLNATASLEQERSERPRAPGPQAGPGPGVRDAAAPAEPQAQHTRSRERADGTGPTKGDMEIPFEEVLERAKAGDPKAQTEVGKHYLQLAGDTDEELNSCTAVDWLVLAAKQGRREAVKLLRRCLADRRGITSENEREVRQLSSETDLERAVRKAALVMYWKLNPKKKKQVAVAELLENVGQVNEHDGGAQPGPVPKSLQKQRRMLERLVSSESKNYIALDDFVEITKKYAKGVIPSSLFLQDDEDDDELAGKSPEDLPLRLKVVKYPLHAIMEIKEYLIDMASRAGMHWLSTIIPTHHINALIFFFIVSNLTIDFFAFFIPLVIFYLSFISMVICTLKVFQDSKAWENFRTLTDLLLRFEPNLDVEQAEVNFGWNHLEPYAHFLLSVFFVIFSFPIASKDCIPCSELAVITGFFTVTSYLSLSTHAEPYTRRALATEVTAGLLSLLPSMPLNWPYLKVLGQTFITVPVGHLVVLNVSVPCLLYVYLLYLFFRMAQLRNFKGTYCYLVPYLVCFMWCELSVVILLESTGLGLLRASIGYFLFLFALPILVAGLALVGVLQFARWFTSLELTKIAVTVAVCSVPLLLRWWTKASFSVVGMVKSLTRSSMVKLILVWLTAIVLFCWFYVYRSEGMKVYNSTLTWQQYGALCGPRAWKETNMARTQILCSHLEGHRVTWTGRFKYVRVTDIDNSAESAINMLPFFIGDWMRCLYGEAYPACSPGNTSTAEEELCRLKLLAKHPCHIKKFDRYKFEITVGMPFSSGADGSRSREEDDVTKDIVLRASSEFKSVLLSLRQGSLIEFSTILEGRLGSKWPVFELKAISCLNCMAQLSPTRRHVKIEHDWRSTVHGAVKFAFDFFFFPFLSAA
MEASURED_PARAMETER: IC50

In: IC50 for `CCOc1ccc(CCn2cc(CNc3ncc4c(n3)N(C)[C@@H](C)C(=O)N4)cn2)cc1` ?
Out: 60 to 600 nM

In: Also check `Cc1nc(N[C@@H]2CC[C@@H](Oc3cc(F)c(F)c(F)c3)C2)nc2c1N(C)C(=O)[C@H](C)N2C`
Out: 60 to 600 nM

In: Also check `CO[C@H](C)[C@H]1C(=O)Nc2c(C)nc(N[C@H]3C[C@H](Oc4ccc(C(F)(F)F)nc4)C3)nc2N1C`
Out: < 60 nM

In: Also check `Cc1cc(F)ncc1Cn1cc(CNc2nc(C)c3c(n2)N(C)[C@@H](C(C)C)C(=O)N3)cn1`
Out: 60 to 600 nM

In: Also check `Cc1nc(NCc2cnn(Cc3ccc(C(F)(F)F)nc3)c2)nc2c1NC(=O)C1(CCC1)N2C`
Out: 60 to 600 nM

* * *

system: HepG2 WFS1 KO; experiment: In vitro cell viability (CellTiter-Glo), HepG2 WFS1 KO; type: cell-based; settings: cell viability, HepG2 WFS1 KO, 96 hours, Cell Titer Glo; read-out: IC50
pIC50: −log10 of the molar value.
MEASURED_PARAMETER: pIC50

In: pIC50 for Cc1nc(NCc2cnn(Cc3ccc(C(F)(F)F)nc3)c2)nc2c1NC(=O)[C@H](C)N2C [Compound 136] ?
Out: < 4.57

* * *

test system: Hek293 WFS1 over-expressor; test: In vitro cell viability (CellTiter-Glo), Hek293 WFS1 over-expressor; assay type: cell-based; conditions: Homo sapiens, HEK293, Hek293 WFS1 over-expressing cells; read-out: Hek293 WFS1 viability
I'd be grateful if you could share measured IC50 for these entries.

In: IC50 for Cc1nc(N[C@@H]2CC[C@@H](n3ccc(C(F)(F)F)n3)C2)nc2c1NC(=O)[C@H](C)N2C (single isomer, unassigned) [Compound 311] ?
Out: < 60 nM

In: Also check Cc1nc(NCc2cnn(Cc3ccc(F)cc3)c2)nc2c1NC(=O)C1(CC1)N2 [Compound 222]
Out: ≥ 3000 nM

In: Also check Cc1nc(N(C)Cc2cnn(Cc3ccc(C(F)(F)F)nc3)c2)nc2c1NC(=O)[C@H](C)N2C [Compound 403]
Out: ≥ 3000 nM

In: Also check CC(=O)N(Cc1cnn(Cc2ccc(C(F)(F)F)nc2)c1)c1nc(C)c2c(n1)N(C)[C@@H](C)C(=O)N2 [Compound 405]
Out: ≥ 3000 nM

In: Also check Cc1nc(NCc2cnn(Cc3ccc(F)nc3)c2)nc2c1NC(=O)[C@H](C)N2C [Compound 77]
Out: 60 to 600 nM

In: Also check Cc1nc(N[C@H]2C[C@H](Sc3ccc(F)cc3)C2)nc2c1N(C)C(=O)[C@H](C)N2C [Compound 307]
Out: 60 to 600 nM

In: Also check Cc1nc(N[C@H]2C[C@H](COc3cc(F)c(F)c(F)c3)C2)nc2c1NC(=O)[C@H](C)N2C [Compound 258]
Out: 60 to 600 nM

* * *

system: Colo205-TCF/LEF-Luciferase (Luc) tumor; assay: In vivo inhibition of TCF/LEF reporter activity in Colo-205 tumors; set-up: concentration or dose not given beside the values; conditions: TCF/LEF luciferase reporter in Colo-205 tumors, nu/nu mice, oral gavage
I'd be grateful if you could share measured Percent Remaining Activity at 8 hrs after Dosing for these entries.
Number plus unit, in that order.

In: Percent Remaining Activity at 8 hrs after Dosing for `COc1c(F)cc(Cn2cc(CNc3nc(C)c4c(n3)N(C)[C@@H](C(C)C)C(=O)N4)cn2)cc1F` ?
Out: 32%

In: Also check `Cc1nc(C(F)(F)F)ccc1Cn1cc(CNc2nc(C)c3c(n2)N(C)[C@@H](C)C(=O)N3)cn1`
Out: 15%

In: Also check `Cc1nc(NCc2cnn(Cc3ccc(C(C)(F)F)nc3)c2)nc2c1NC(=O)[C@H](C(C)C)N2C`
Out: 52%

In: Also check `Cc1nc(NCc2cnn(Cc3ccc(C(F)(F)F)nc3)c2)nc2c1NC(=O)[C@H](C)N2C(C)C`
Out: 25%

In: Also check `Cc1nc(N[C@H]2C[C@H](Oc3cc(F)c(F)c(F)c3)C2)nc2c1NC(=O)[C@H](C)N2C`
Out: 18%

In: Also check `Cc1nc(NCc2cnn(Cc3ccc(Cl)nc3)c2)nc2c1N(C)C(=O)[C@H](CCO)N2C`
Out: 98%

In: Also check `Cc1nc(NCc2cnn(Cc3ccnc(N(C)C)c3)c2)nc2c1NC(=O)[C@H](C1CC1)N2C`
Out: 101%

In: Also check `COCC[C@H]1C(=O)Nc2c(C)nc(NCc3cnn(Cc4cc(C(F)(F)F)nn4C)c3)nc2N1C`
Out: 75%

In: Also check `Cc1nc(N[C@H]2C[C@H](Oc3ccc(C(F)(F)F)nc3)C2)nc2c1NC(=O)[C@H](C)N2C`
Out: 16%

In: Also check Cc1nc(N[C@H]2C[C@@H](COc3ccc(C(F)(F)F)nc3)C2)nc2c1NC(=O)[C@H](C(C)C)N2C (relative stereo)
Out: 20%

In: Also check `Cc1nc(NCc2cnn(Cc3ccnc(C(F)(F)F)c3)c2)nc2c1NC(=O)[C@H](C(C)C)N2C`
Out: 76%

In: Also check `Cc1nc(NCc2cnn(Cc3ccc(Cl)nc3)c2)nc2c1NC(=O)[C@H](C1CC1)N2C`
Out: 26%

In: Also check `CN1C(=O)C(C)(C)N(C)c2nc(NCc3cnn(Cc4cc(F)c(F)c(F)c4)c3)ncc21`
Out: 49%

In: Also check Cc1nc(N[C@H]2CC[C@H](Oc3ccc(C(F)(F)F)nc3)C2)nc2c1NC(=O)[C@H](C)N2C (single isomer, unassigned)
Out: 33%

In: Also check `Cc1nc(NCc2cnn(Cc3ccc(Cl)nc3)c2)nc2c1NC(=O)[C@H](C(C)C)N2C`
Out: 27%

In: Also check `Cc1nc(N[C@H]2C[C@H](Oc3cc(F)c(F)c(F)c3)C2)nc2c1N(C)C(=O)[C@H](C)N2C`
Out: 15%

In: Also check `CO[C@H](C)[C@H]1C(=O)Nc2c(C)nc(NCc3cnn(Cc4ccc(F)cc4)c3)nc2N1C`
Out: 62%

In: Also check `Cc1nc(NCc2cnn(Cc3ccc(C(F)(F)F)nc3C(C)(C)O)c2)nc2c1NC(=O)[C@H](C)N2C`
Out: 22%

In: Also check `Cc1nc(N[C@H]2C[C@H](Oc3ccnc(C(F)(F)F)c3)C2)nc2c1NC(=O)[C@H](C)N2C`
Out: 18%

In: Also check `CCN1c2nc(NCc3cnn(Cc4ccc(C(F)(F)F)nc4)c3)nc(C)c2NC(=O)[C@@H]1C`
Out: 19%

In: Also check `CO[C@H](C)[C@H]1C(=O)Nc2c(C)nc(NCc3cnn(Cc4ccc(Cl)nc4)c3)nc2N1C`
Out: 31%

In: Also check `Cc1nc(NCc2cnn(Cc3ccc(C(F)(F)F)cc3)c2)nc2c1NC(=O)[C@H](C)N2C`
Out: 17%

In: Also check `Cc1nc(NCc2cnn(Cc3cc(C(F)(F)F)nn3C)c2)nc2c1NC(=O)[C@H](C(C)C)N2C`
Out: 23%

In: Also check `Cc1nc(NCc2cnn(Cc3ccc(C(F)(F)F)nc3)c2)nc2c1NC(=O)[C@H](C1CC1)N2C`
Out: 19%

In: Also check `Cc1nc(NCc2cnn(Cc3ccc(F)nc3)c2)nc2c1NC(=O)[C@H](C(C)C)N2C`
Out: 14%

In: Also check `CC[C@H]1C(=O)Nc2c(C)nc(NCc3cnn(Cc4ccc(C(F)(F)F)nc4)c3)nc2N1C`
Out: 23%

In: Also check `Cc1nc(NCc2cnn([C@H]3C[C@H]3c3ccc(F)cc3)c2)nc2c1NC(=O)[C@H](C)N2C`
Out: 17%

In: Also check `Cc1nc(NCc2cnn(Cc3ccc(C(F)(F)F)nc3)c2)nc2c1NC(=O)[C@H](C)N2C`
Out: 24%

In: Also check `Cc1nc(NCc2cnn(Cc3ccc(C#N)nc3)c2)nc2c1NC(=O)[C@H](C(C)C)N2C`
Out: 29%

* * *

test system: HepG2 parental; experiment: In vitro cell viability (CellTiter-Glo), HepG2 parental; assay type: cell-based; conditions: cell viability, 96 hours, read-out: IC50 class
MEASURED_PARAMETER: IC50

In: Which measured IC50 belongs to `Cc1nc(NCc2cnn(Cc3ccc(C(F)(F)F)nc3)c2)nc2c1NC(=O)[C@H](C)N2C` , tested on HepG2 parental?
Out: < 500 nM

Origin of measurements: patent US20230312587A1
